B1: SH3 and PX domain-containing protein 2B, residues 155 to 209; numbered along this chain, A1X283 (parent)
chain: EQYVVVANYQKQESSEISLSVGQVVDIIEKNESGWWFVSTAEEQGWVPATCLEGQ

Variants of: B1
Measurement Notes: abundance fitness (aPCA) (normalised: wild type 0, dead -1); higher = more abundant; growth selection in yeast, the domain comes from the species named
Condition Summary: Homo sapiens
Readout Label: abundance fitness

Answered cases to consult:
> print(dat)
                             sequence.entry      readout.label  reported.value
1  EQGVVVANYQKQESSEISLSVGQVVDIIEKNESGWWFVSTAEEQGWVPATCLEGQ [Y3G]  abundance fitness           0.003
2  EQYVVVANYQKQESSEISLSVGQVVDIIEKNESGWWFVSTAEEQGWVAATCLEGQ [P48A]  abundance fitness          -0.626
3  EQKVVVANYQKQESSEISLSVGQVVDIIEKNESGWWFVSTAEEQGWVPATCLEGQ [Y3K]  abundance fitness          -0.035
4  EQYVVVANYQKQESSEISLSVGQVVDIIEKNESGWWFVSTAEELGWVPATCLEGQ [Q44L]  abundance fitness          -0.337
5  EGYVVVANYQKQESSEISLSVGQVVDIIEKNESGWWFVSTAEEQGWVPATCLEGQ [Q2G]  abundance fitness          -0.082
6  EQPVVVANYQKQESSEISLSVGQVVDIIEKNESGWWFVSTAEEQGWVPATCLEGQ [Y3P]  abundance fitness          -0.585

Kindly give each listed record's abundance fitness.
1. EQTVVVANYQKQESSEISLSVGQVVDIIEKNESGWWFVSTAEEQGWVPATCLEGQ [Y3T]
2. EQYVVVANYQKQESSEISLSVGQVVDIIEKNEHGWWFVSTAEEQGWVPATCLEGQ [S33H]

## Output
1. -0.06
2. -0.046
